# System: HCC 2998
# assay.remarks: NCI tumour cell line growth inhibition, 48 h
Calls of active or inactive are those of the source. Rule as the data show it: active = GI50 up to about 1.1 µM and inactive = higher.
Exercise: for every item that follows, state its recorded GI50.

Asked: Give a short answer stating reported GI50 for `Cc1ccc(N2C(=O)/C(=C3\Sc4c(nc(C)n(C)c4=O)N3c3ccccc3)SC2=S)cc1` .
Given back: > 100 µM (inactive)

Asked: Give a short answer stating reported GI50 for `COC1=CC(=O)c2c(c(-c3nc(C)cs3)cn2C)C1=O` .
Given back: 4.28 µM (inactive)

Asked: Give a short answer stating reported GI50 for OC1COC(OCc2ccccc2)C(O)C1O (stereo not given) .
Given back: > 100 µM (inactive)

Asked: Give a short answer stating reported GI50 for COC(=O)C1(CCCCCBr)CCCCCCCCCCC1=O (stereo not given) .
Given back: 41.1 µM (inactive)

Asked: Give a short answer stating reported GI50 for `O=C(Oc1c(Br)cc(Br)cc1C(=O)Oc1ccccc1)C(=O)Oc1c(Br)cc(Br)cc1C(=O)Oc1ccccc1` .
Given back: 31 µM (inactive)

Asked: Give a short answer stating reported GI50 for O=C1CSC(c2c[nH]c3ccccc23)N1c1ccccc1[N+](=O)[O-] (stereo not given) .
Given back: > 100 µM (inactive)

Asked: Give a short answer stating reported GI50 for `Cc1cc2c(c(S(=O)(=O)c3ccccc3[N+](=O)[O-])c1)NCCC2` .
Given back: 91.2 µM (inactive)

Asked: Give a short answer stating reported GI50 for O=C1c2[nH]c3ccccc3c2CCN2CCCCC12 (stereo not given) .
Given back: 17.2 µM (inactive)

Asked: Give a short answer stating reported GI50 for `O=C1OC2(c3ccc(O)cc3Oc3cc(O)ccc32)c2c1c(-c1ccccc1)c(-c1ccccc1)c(-c1ccccc1)c2-c1ccccc1` .
Given back: 16.4 µM (inactive)

Asked: Give a short answer stating reported GI50 for COC1(OC)CCC2(C)OC(c3ccccc3)C1O2 (stereo not given) .
Given back: > 100 µM (inactive)

====

Exercise: for every item that follows, state its recorded GI50.
# System: SR
# assay.remarks: NCI tumour cell line growth inhibition, 48 h
The source made the active and inactive calls. Cut-off read from the data, not from the text of the source: active = GI50 up to about 1.1 µM and inactive = higher.

Asked: Give a short answer stating reported GI50 for `CN1C(=N\S(=O)(=O)c2ccc(Cl)cc2)/C(=N/N=P(c2ccccc2)(c2ccccc2)c2ccccc2)c2ccccc21` .
Given back: > 100 µM (inactive)

Asked: Give a short answer stating reported GI50 for C/C=C1/C(=Cc2[nH]c(C=c3[nH]/c(=C/C4=NC(=O)C(CC)=C4C)c(C)c3CCC(=O)O)c(CCC(=O)O)c2C)NC(=O)C1C (stereo not given) .
Given back: 4.37 µM (inactive)

Asked: Give a short answer stating reported GI50 for `O=C1/C(=C/c2ccc([N+](=O)[O-])cc2)CCCc2ccccc21` .
Given back: > 100 µM (inactive)

Asked: Give a short answer stating reported GI50 for `O=C1c2cc3c(cc2CC12Cc1cc4c(cc1C2=O)CCC4)CCC3` .
Given back: > 100 µM (inactive)

Asked: Give a short answer stating reported GI50 for C=C(Cl)C(Cl)(CBr)CCC(Cl)C(C)C (stereo not given) .
Given back: > 36.6 µM (inactive)

====

# Tested on: IGROV-1
# assay.remarks: NCI tumour cell line growth inhibition, 48 h
Calls of active or inactive are those of the source. Rule as the data show it: active = GI50 up to about 1.1 µM and inactive = higher.
assay.readout: GI50

Asked: Give a short answer stating reported GI50 for CC1(CO)C(O)CCC2(C)C1CCC1CC3CC12CCC3(O)CO (configuration not stated) .
Given back: > 100 µM (inactive)

Asked: Give a short answer stating reported GI50 for COc1c(CC=C(C)C)c(O)c(C(CC(C)C)c2c(O)c(CC=C(C)C)c(O)c(C(C)=O)c2O)c(O)c1C(C)=O (configuration not stated) .
Given back: 1.7 µM (inactive)

Asked: Give a short answer stating reported GI50 for COC(=O)C(C(=O)C(=O)NC1Nc2ccc(C)cc2S1)c1nc2ccc(Cl)cc2nc1O (configuration not stated) .
Given back: 40.6 µM (inactive)

Asked: Give a short answer stating reported GI50 for CCOC1Oc2ccccc2-c2nc(N)ncc21 (configuration not stated) .
Given back: 43.6 µM (inactive)

Asked: Give a short answer stating reported GI50 for `CSCCCCCCCCCCOc1ccc(C=C2C(=C(C#N)C#N)c3ccccc3C2=C(C#N)C#N)cc1` .
Given back: 17.3 µM (inactive)

Asked: Give a short answer stating reported GI50 for `Cc1cc(S(=O)(=O)N/C(=C(\C#N)C(=O)c2ccccc2)[n+]2ccc(N(C)C)cc2)c([S-])cc1Cl` .
Given back: 88.3 µM (inactive)

Asked: Give a short answer stating reported GI50 for NC(Cc1ccc(B(O)O)cc1)C(=O)NC(CO)CO (configuration not stated) .
Given back: > 100 µM (inactive)

Asked: Give a short answer stating reported GI50 for `CC1(C)C(=O)N(CCCCCCN2C(=O)C(C)(C)c3ccccc32)c2ccccc21` .
Given back: 88.3 µM (inactive)

Asked: Give a short answer stating reported GI50 for `COc1ccc2nc(-c3ccc(O)cc3)sc2c1` .
Given back: 19.1 µM (inactive)

Asked: Give a short answer stating reported GI50 for `CC(=O)OCc1c2ccccc2c(C)c2c1cc(F)c1ccccc12` .
Given back: 22.5 µM (inactive)

Asked: Give a short answer stating reported GI50 for CN1C(=O)CCC2[C@@H]3CC=C4C[C@@H](O)CC[C@]4(C)C3CC[C@@]21C (some centres not stated) .
Given back: 96.2 µM (inactive)

Asked: Give a short answer stating reported GI50 for CC(C(=O)c1ccncc1)c1ccccn1 (configuration not stated) .
Given back: > 100 µM (inactive)

Asked: Give a short answer stating reported GI50 for CCOC(=O)CCC(=O)C1c2cccc(O)c2C(=O)c2c(O)cc(C)cc21 (configuration not stated) .
Given back: 0.289 µM (active)

Asked: Give a short answer stating reported GI50 for `CC1=NN(C(=O)c2ccccc2O)C(=O)/C1=C/c1ccccc1O` .
Given back: 0.0577 µM (active)

Asked: Give a short answer stating reported GI50 for COC(=O)c1ccccc1C1CN=NC12Cc1c(C)cc(C)cc1C2=O (configuration not stated) .
Given back: > 100 µM (inactive)

Asked: Give a short answer stating reported GI50 for COC(=O)C(=O)C(CC(=O)Nc1cc(Cl)ccc1Cl)C(=O)OC (configuration not stated) .
Given back: > 100 µM (inactive)

Asked: Give a short answer stating reported GI50 for `CC(=O)c1ccc(NC(=O)/C(CC(=O)c2sc(-c3cccnc3)nc2C)=N/NC(N)=O)cc1` .
Given back: > 100 µM (inactive)

Asked: Give a short answer stating reported GI50 for `COC(=O)c1c(O)ccc2c1c1c(n2Cc2cc(OC)cc(OC)c2)C(=O)c2ccccc2C1=O` .
Given back: 5.06 µM (inactive)

Asked: Give a short answer stating reported GI50 for `Cc1ccc2c(=O)c(C(=O)NNC(=S)NC3CCCCC3)c[nH]c2n1` .
Given back: 35.6 µM (inactive)

Asked: Give a short answer stating reported GI50 for `[O-][Cl+3]([O-])([O-])O.c1ccc(C2=NN2c2ccccc2)cc1` .
Given back: 34 µM (inactive)

Asked: Give a short answer stating reported GI50 for `O=C(O)c1ccc(C(=O)Nc2cccc3ccccc23)c(C(=O)O)c1` .
Given back: > 100 µM (inactive)

Asked: Give a short answer stating reported GI50 for `COc1ccc(NC(=O)CSc2nnc(Cc3ccccc3)o2)cc1` .
Given back: > 100 µM (inactive)

Asked: Give a short answer stating reported GI50 for `O=[N+]([O-])c1ccc(Nc2cccc3c4cc[nH]c(-c5ccccc5)c-4nc23)c([N+](=O)[O-])c1` .
Given back: > 100 µM (inactive)

Asked: Give a short answer stating reported GI50 for `[O-]c1c[n+](CC[n+]2cc([O-])on2)no1` .
Given back: > 100 µM (inactive)

Asked: Give a short answer stating reported GI50 for COC(=O)C1(CCCCCBr)CCCCCCCCCCC1=O (configuration not stated) .
Given back: 30.5 µM (inactive)

Asked: Give a short answer stating reported GI50 for `CC[C@]1(Cc2ccc(OC)c(OC)c2)C=[N+]([O-])O[C@H](OCc2ccccc2)[C@@H]1OC(C)=O` .
Given back: 25.1 µM (inactive)

Asked: Give a short answer stating reported GI50 for `O=C1C(Cl)=C(OCCCl)C(=O)c2c(O)ccc(O)c21` .
Given back: 7.13 µM (inactive)

Asked: Give a short answer stating reported GI50 for O=C1NC(c2c(Cl)cccc2Cl)Nc2ccccc21 (configuration not stated) .
Given back: 21.2 µM (inactive)

Asked: Give a short answer stating reported GI50 for `O=S1(=O)N2CN3CN(C2)CN1C3` .
Given back: 278 µM (inactive)

Asked: Give a short answer stating reported GI50 for `CC(=O)Nc1ccc(-c2nnc(SCC(=O)Nc3ccccc3)o2)cc1` .
Given back: 47.6 µM (inactive)

Asked: Give a short answer stating reported GI50 for CCOc1ccccc1NC(=O)CC1SC(Nc2ccc([N+](=O)[O-])cc2)=NC1=O (configuration not stated) .
Given back: 23.2 µM (inactive)

Asked: Give a short answer stating reported GI50 for O=c1ccc2ccccc2o1 [COUMARIN] .
Given back: > 100 µM (inactive)

Asked: Give a short answer stating reported GI50 for COc1cc(C(=O)OC2CC34CCNC35CC(OC5(OC)C2O)c2cc3c(cc24)OCO3)ccc1O (configuration not stated) .
Given back: > 100 µM (inactive)

Asked: Give a short answer stating reported GI50 for `CCN1C/C(=C\c2ccc(Cl)cc2)c2[nH]c(=O)c(C#N)c(-c3ccc(Cl)cc3)c2C1` .
Given back: > 100 µM (inactive)

Asked: Give a short answer stating reported GI50 for `Nc1nc(N)c2nc(CNc3ccc(C(=O)O)cc3)[nH]c2n1` .
Given back: > 100 µM (inactive)

Asked: Give a short answer stating reported GI50 for `CC(=O)Oc1cc(Cl)c(C)c2c1[C@H]1CC[C@]3(C)[C@@H](OC(C)=O)CC[C@H]3[C@@H]1CC2` .
Given back: > 100 µM (inactive)

Asked: Give a short answer stating reported GI50 for `COc1cc(/C=C/c2ccccn2)cc(OC)c1OC` .
Given back: > 10 µM (inactive)

Asked: Give a short answer stating reported GI50 for `Cc1c(C(=O)O)oc2ccc([N+](=O)[O-])cc12` .
Given back: > 100 µM (inactive)

Asked: Give a short answer stating reported GI50 for `c1c(N2CCOCC2)s[s+]c1N1CCOCC1` .
Given back: > 100 µM (inactive)

Asked: Give a short answer stating reported GI50 for `COc1c(O)cc2ccnc3c2c1N(C)C=C3` .
Given back: > 100 µM (inactive)

Asked: Give a short answer stating reported GI50 for COc1cc(/C=C2\CCC(C)C3=C(c4cc(OC)c(OC)c(OC)c4)C(C#N)=C(N)OC32)cc(OC)c1OC (configuration not stated) .
Given back: 4.94 µM (inactive)

Asked: Give a short answer stating reported GI50 for C=CCOc1ccc(C2c3c(n[nH]c3O)CC(O)(OCC)C2C(=O)OCC)cc1OC (configuration not stated) .
Given back: > 100 µM (inactive)
